Test system: 293T cells
Experiment: Fluorescent detection of Fluc-mRNA (cell transfection efficiency of LNP formulations)
Type: cell-based
Details: ratio vs YK-414
quantity measured: cell transfection efficiency, times that of YK-414

molecule="CCCCCCCCCCCOC(=O)CCCN(CCO)CCN(CCO)CCCCCC(=O)OC(CCCCCCCC)CCCCCCCC [YK-407]" quantitative_result=45.90
molecule="CCCCCCCCC(CCCCCCCC)OC(=O)CCCCCCCN(CCO)CCN(CCO)CCCCCCCC(=O)OC(CCCCCCCC)CCCCCCCC [YK-403]" quantitative_result=11.82
molecule="CCCCCCCCC(CCCCCCCC)OC(=O)CCCCCN(CCO)CCN(CCO)CCCCCC(=O)OC(CCCCCCCC)CCCCCCCC [YK-401]" quantitative_result=12.63
molecule="CCCCCCCCC(CCCCCCCC)COC(=O)CCCCCN(CCCO)CCN(CCCO)CCCCCC(=O)OCC(CCCCCCCC)CCCCCCCC [YK-422]" quantitative_result=14.49
molecule="CCCCCCCCC(CCCCCCCC)C(=O)OCCCCCCN(CCO)CCN(CCO)CCCCCCOC(=O)C(CCCCCCCC)CCCCCCCC [YK-402]" quantitative_result=11.36
molecule="CCCCCCCCC(CCCCCCCC)COC(=O)CCCCCN(CCCO)CCCN(CCCO)CCCCCC(=O)OCC(CCCCCCCC)CCCCCCCC [YK-423]" quantitative_result=14.02

----------
A collection of compounds and their measured encapsulation efficiency higher than compound 23
Experiment: Detection of encapsulation efficiency, drug loading concentration and total RNA concentration (RiboGreen)
Assay type: physicochemical
Settings: difference vs compound 23
quantity measured: encapsulation efficiency higher than compound 23 (%)

item_smiles=CCCCCCCCC(CCCCCCCC)OC(=O)CCCCCCCN(CCO)CCN(CCO)CCCCCCCC(=O)OC(CCCCCCCC)CCCCCCCC unit=% quantitative_result=31.7
item_smiles=CCCCCCCCC(CCCCCCCC)OC(=O)CCCCCN(CCO)CCN(CCO)CCCCCC(=O)OC(CCCCCCCC)CCCCCCCC unit=% quantitative_result=27.4
item_smiles=CCCCCCCCCCCOC(=O)CCCN(CCO)CCN(CCO)CCCCCC(=O)OC(CCCCCCCC)CCCCCCCC unit=% quantitative_result=29.0
item_smiles=CCCCCCCCC(CCCCCCCC)COC(=O)CCCCCN(CCCO)CCCN(CCCO)CCCCCC(=O)OCC(CCCCCCCC)CCCCCCCC unit=% quantitative_result=33.5
item_smiles=CCCCCCCCC(CCCCCCCC)COC(=O)CCCCCN(CCCO)CCN(CCCO)CCCCCC(=O)OCC(CCCCCCCC)CCCCCCCC unit=% quantitative_result=36.2
item_smiles=CCCCCCCCC(CCCCCCCC)C(=O)OCCCCCCN(CCO)CCN(CCO)CCCCCCOC(=O)C(CCCCCCCC)CCCCCCCC unit=% quantitative_result=34.8

----------
Test system: 293T cells
Test: Cell survival rate assay (CCK-8)
Assay type: cell-based
Details: difference vs YK-406
Procedure: Cell recovery and passage: 293T cells were recovered, cultured in a culture dish, and passaged to the required number of cells. Seeding plate: The cells in the culture dish were digested and counted. Cells were spread in a 96-well plate at 10,000 cells per well and in a 12-well plate at 150,000 cells per well. Cells were cultured overnight until the cells adhered to the wall. […]
quantity measured: cell survival rate higher than YK-406 (%)

item_smiles=CCCCCCCCC(CCCCCCCC)OC(=O)CCCCCCCN(CCO)CCN(CCO)CCCCCCCC(=O)OC(CCCCCCCC)CCCCCCCC quantity_measured="cell survival rate higher than YK-406" quantitative_result=45.80
item_smiles=CCCCCCCCC(CCCCCCCC)C(=O)OCCCCCCN(CCO)CCN(CCO)CCCCCCOC(=O)C(CCCCCCCC)CCCCCCCC quantity_measured="cell survival rate higher than YK-406" quantitative_result=47.74
item_smiles=CCCCCCCCC(CCCCCCCC)COC(=O)CCCCCN(CCCO)CCN(CCCO)CCCCCC(=O)OCC(CCCCCCCC)CCCCCCCC quantity_measured="cell survival rate higher than YK-406" quantitative_result=45.52
item_smiles=CCCCCCCCC(CCCCCCCC)COC(=O)CCCCCN(CCCO)CCCN(CCCO)CCCCCC(=O)OCC(CCCCCCCC)CCCCCCCC quantity_measured="cell survival rate higher than YK-406" quantitative_result=46.18
item_smiles=CCCCCCCCCCCOC(=O)CCCN(CCO)CCN(CCO)CCCCCC(=O)OC(CCCCCCCC)CCCCCCCC quantity_measured="cell survival rate higher than YK-406" quantitative_result=46.41
item_smiles=CCCCCCCCC(CCCCCCCC)OC(=O)CCCCCN(CCO)CCN(CCO)CCCCCC(=O)OC(CCCCCCCC)CCCCCCCC quantity_measured="cell survival rate higher than YK-406" quantitative_result=50.25
